Where do these numbers come from? They come from paper PMC7760690.

# pIC50 values compiled below
Assay: MTT cytotoxicity assay
Type: cell-based, murine
Conditions: mouse, Neuro-2a neuroblastoma cells; Neuro-2a cells, MTT
pIC50: −log10 of the molar value.

{"molecule": "CC1CC(O)CC2(Cc3cc(O)cc(O)c3C(=O)O2)O1 (stereo not drawn)", "value_measured": "< 4.00"}
{"molecule": "C[C@H](O)CC1=C[C@H](O)[C@@H](C)OC1=O [Compound 5, Dihydroaspyrone]", "value_measured": "< 4.00"}
{"molecule": "O=C1C[C@H](O)[C@@H](O)c2cccc(O)c21 [Compound 2, (3S,4S)-4-hydroxy-6-dehydroxyscytalone]", "value_measured": "< 4.00"}
{"molecule": "COC1=C(c2c[nH]c3ccccc23)C(=O)C(OC)=C(c2c[nH]c3ccccc23)C1=O", "value_measured": "< 4.00"}
{"molecule": "O=C1C[C@H](O)[C@@H](O)c2cc(O)cc(O)c21 [Compound 1, (3S,4S)-4-hydroxyscytalone]", "value_measured": "< 4.00"}

Q: Param item = `COC1=C(c2c[nH]c3ccccc23)C(=O)C(OC)=C(c2c[nH]c3c(CC=C(C)C)cccc23)C1=O` ; retrieve measured pIC50.
Ans: < 4.00

Q: Param item = Cc1cc(O)c(C)c(=O)o1 [Compound 4, 4-hydroxy-3,6-dimethyl-2-pyrone] ; retrieve measured pIC50.
Ans: < 4.00

Q: Param item = `COc1cc(O)cc2c1C(=O)c1c(O)cc(C)cc1C2=O` ; retrieve measured pIC50.
Ans: < 4.00

Q: Param item = `C=CC(C)(C)c1[nH]c2ccccc2c1C1=C(OC)C(=O)C(c2cn(C(C)(C)C=C)c3ccccc23)=C(OC)C1=O` ; retrieve measured pIC50.
Ans: < 4.00

Q: Param item = `C=CC(C)(C)c1[nH]c2ccccc2c1C1=C(OC)C(=O)C(c2c(C(C)(C)C=C)[nH]c3ccccc23)=C(OC)C1=O` ; retrieve measured pIC50.
Ans: 4.04

Q: Param item = COc1c2c(c(OC)c(O)c1-c1c[nH]c3ccccc13)C1(O)c3ccccc3NC1O2 (stereo not drawn) ; retrieve measured pIC50.
Ans: < 4.00

Q: Param item = `C=CC(C)(C)c1[nH]c2ccccc2c1C1=C(OC)C(=O)C(c2c[nH]c3ccccc23)=C(OC)C1=O` ; retrieve measured pIC50.
Ans: 4.37
